tested on: CCRF-CEM; assay: NCI tumour cell line growth inhibition, 48 h
The source made the active and inactive calls. Rule as the data show it: active = GI50 up to about 1.1 µM and inactive = higher.
Labels: t for active, f for inactive

Compound	Assigned class
CSC(SC)=C1Sc2cccc(Cl)c2S1	f
COc1ccc(OC)c(/N=C/c2cc(OC)c(OC)c(OC)c2)c1	f
C[C@H]1C(=O)O[C@@H]1[C@H]1COC(C)(C)O1	f
COc1ccc(/C(CCl)=C(\Nc2ccccc2)c2ccc(OC)c(OC)c2)cc1OC	f
CCOC(=O)C(C)c1c(C(=O)c2ccc(C)nc2)c2ccccc2n1C (stereo not drawn)	f
NCC1OC(n2cnc3c(=O)[nH]c(N)nc32)C(O)C1O (stereo not drawn)	f
CC(C)=CCC/C(=C/CC/C(=C\CCc1ccoc1)C(=O)O)C(=O)O	f
Cc1ccc([S@+]([O-])c2occc2C=O)cc1	f
O=C(CC(=O)N1N=C(N(c2ccccc2)c2ccccc2)CC1c1ccccc1)Nc1cccc(Cl)c1 (stereo not drawn)	f
SC1=NC2=C(CSC/C2=C\c2ccccc2)C(c2ccccc2)N1 (stereo not drawn)	f
CCOc1ccccc1NC(=O)C(C#N)C1=C(Cl)C(=O)c2ccccc2C1=O (stereo not drawn)	t
Cc1[nH]c2ccccc2c1C1CC(=O)NC1=O (stereo not drawn)	f
CC(=O)OCC1=C(C(=O)O)N2C(=O)C(NC(=O)CSc3ccncc3)C2SC1 (stereo not drawn)	f
C=CCO[C@H]1CC[C@@]2(C)C(CC[C@]3(C)C2CC=C2[C@@H]4[C@@H](C)C(C)CC[C@]4(C(=O)O)CCC23C)C1(C)C (stereo partly drawn)	f
CNC=O	f
CC(=O)Oc1ccccc1-c1cc2ccccc2oc1=O	f
COc1cc(NCc2ccc3nc(OC)c(OC)nc3c2)cc(OC)c1OC	f
O=[N+]([O-])c1cccc2nc3ccccc3c(NCCCn3ccnc3[N+](=O)[O-])c12	t
